Measured values drawn from PubChem BioAssay AID651841 for this set.

System: CAI-1 sensor histidine kinase CqsS (Vibrio cholerae)
Experiment: Inducers of light production, absence of autoinducers, V cholerae delta luxQ strain, confirmatory (AID 651841)
Conditions: V. cholerae WN1103 delta luxQ, luciferase light, 6 h; at 80 µM (top of the series)
READOUT KIND: activation (%)

                         chemical_string  value_measured
0               CCn1nnc(NCc2ccc(C)cc2)n1           0.069
1                CCn1nnnc1NCc1cccc(OC)c1            24.5
2  c1ccc(-n2nnnc2NCc2ccc(N3CCCC3)cc2)cc1           0.501
3         O=C(Cc1ccccc1C(F)(F)F)NC1CCCC1           0.044
4      O=C(NCc1ccc(-c2ccccc2)cc1)C1CCCC1            3.17
5     CS(=O)(=O)c1ccc(CC(=O)NC2CCCC2)cc1           0.008
6             CCn1nnnc1NCc1ccccc1N1CCCC1           0.052
7                Cc1ccccc1CC(=O)NC1CCCC1           0.164
8               O=C(Cc1ccccc1Cl)NC1CCCC1           0.107
9           CCn1nccc1NCc1ccc(N2CCCC2)cc1           0.149
